system: SK-MEL-5 melanoma; experiment: NCI-60 one-dose screen, 48 h; settings: 10 µM unless noted
About 83,000 compounds went through this panel and 20% of them were active in at least one assay; those are over-represented in the sample as a whole. Active and inactive are the calls of the source. The calls were made as follows: active = growth percent below 10; inactive = the rest.
Please reply with one of these outcomes: y (active), n (inactive)

• Fc1ccc(NCc2nnc(-c3ccc(Cl)cc3)o2)cc1 = n
• Cn1c(=O)c2c(ncn2CC(=O)Nc2ccc(S(N)(=O)=O)cc2)n(C)c1=O = n
• Cn1cc(-c2nc(-c3c[nH]c4ncccc34)cs2)c2ccccc21 = n

*Q* Please share the test call associated with O=C1/C(=C\C(Cl)=C/c2ccc([N+](=O)[O-])cc2)SC(=S)N1CCc1ccc(O)cc1 .
*A* y

*Q* How did this test come out for Cn1cc(-c2nc(-c3c[nH]c4ncccc34)cs2)c2cc(F)ccc21 ?
*A* n

*Q* Tell me the recorded outcome of this test for C=C(C)[C@@H]1CC[C@]2(C(=O)OC)CC[C@]3(C)[C@H](CC[C@@H]4[C@@](C)(CC/C(N)=N/O)[C@H](C(=C)C)CC[C@]43C)[C@@H]12 .
*A* n

*Q* Assay result, entry O=S(=O)(NCCNc1cc(-c2cn(-c3ccccc3)nc2-c2cccc(O)c2)ccn1)c1ccc(F)cc1 — outcome?
*A* y

*Q* Fill in: this test's call for O=C1C=C(C(O)c2ccc(O)cc2)C(=O)c2ccccc21 (stereo unspecified) is ___
*A* n

* * *

system: MCF7 breast; test: NCI-60 one-dose screen, 48 h; settings: 10 µM unless noted
Compounds without any hit were thinned out: in the full panel of roughly 83,000, 20% have a hit. The source made the active and inactive calls. How the source made its calls: active means growth percent below 10; inactive means the rest.
Your reply should match one of these outcome classes. active, inactive

See these solved cases before continuing.
- Cc1cc(N=O)cc(C(C)(C)C)c1O: inactive
- COc1ccc2c(c1)c(-c1nc(-c3c[nH]c4ncccc34)cs1)cn2CCCN1CCCCC1: active
- CCN(CC)C(=O)CCCCCn1c2ccccc2c2c3c(c4c5ccccc5[nH]c4c21)C(=O)N(O)C3=O: inactive
- CN(CSc1ccc(Cl)cc1)c1ccc(CSc2ccc(Cl)cc2)cc1: inactive
- COc1ccc(-c2n[nH]nc2-c2cc3ccccc3s2)cc1O: inactive
- Fc1cccc(-c2[nH]nc3nc(Nc4cccnc4)sc23)c1: inactive

*Q* Please let me know the test result on file for COc1ccccc1CNc1nc(N)nc2[nH]c3ccc(O)cc3c12 .
*A* inactive

*Q* Hi team, can someone confirm the assay call for CCc1cccc(CC)c1NC(=O)c1sc2nc3c(cc2c1N)CCCC3 ?
*A* inactive

* * *

system: HCC-2998 colon; experiment: NCI-60 one-dose screen, 48 h (100 = growth as untreated, 0 = no growth, -100 = all killed); conditions: 10 µM unless noted
This is part of a sample that, as a whole, favours compounds with a hit. Of some 83,000 tested, about 20% had one in any assay.
Parameter measured: growth (%)
Just the number in %, nothing appended.

Answered examples (2):
- Fc1ccc(Nc2ccc3c(OCCCN4CCOCC4)cccc3n2)cc1F: 66.3
- Fc1ccc(Nc2nnc(-c3ccc(Cl)cc3)o2)cc1: 98.9

*Q* Fill in: growth of Cc1nc([P+](c2ccccc2)(c2ccccc2)c2ccccc2)c(Sc2sc(-c3ccccc3)nc2[P+](c2ccccc2)(c2ccccc2)c2ccccc2)o1 is ___
*A* 15.2

*Q* Could you tell me which growth is on file for CCN1CCN(C(=O)[C@]23CCC(C)(C)C[C@@H]2C2=CC[C@@H]4[C@@]5(C)C/C(=C/c6ccncc6)C(=O)C(C)(C)[C@@H]5CC[C@@]4(C)[C@]2(C)CC3)CC1 ?
*A* -68.8

*Q* # input compound: Cn1c2c(c3ccc(Cl)cc31)-n1cccc1C2=O ; wanted: its growth
*A* 101

*Q* Could you tell me which growth is on file for CC1(C)CC[C@]2(C(=O)Nc3ccccn3)CC[C@]3(C)C(=CC[C@@H]4[C@@]5(C)C/C(=C/c6ccncc6)C(=O)C(C)(C)[C@@H]5CC[C@]43C)[C@@H]2C1 ?
*A* 25

*Q* Recorded growth of O=C1NC(=Nc2ccc(S(=O)(=O)Nc3nccs3)cc2)S/C1=C\c1coc2ccccc2c1=O , please.
*A* 99.1

*Q* # query: growth of entry Cc1cccc(C)c1NC(=O)CSC(=S)N1CCN(CCOCCO)CC1
*A* 97.6

*Q* Could you tell me which growth is on file for COc1cccc(-c2nn(-c3ccccc3)cc2-c2ccnc(NCCCN)c2)c1 ?
*A* 65.6

*Q* Which value of growth has been reported for CC(C)c1cc(C(=O)O)c(O)c(C(C)C)c1.CC(C)c1cc(C(=O)O)c(O)c(C(C)C)c1.[Mn] in the records?
*A* 134

*Q* Item CCN(CC)CCCCCCNc1ccnc2cc(Cl)ccc12 has what recorded growth?
*A* 107

*Q* Report growth for C[C@H]1[C@@H]2[C@H]3CC[C@@H]4[C@@]5(C)Cc6c([nH]c7ccccc67)C(C)(C)[C@@H]5CC[C@@]4(C)[C@]3(C)CC[C@]23CO[C@]1(C)[C@@H](C(=O)/C=C/c1ccccn1)C3 please.
*A* 103

*Q* What value of measured growth is listed for COc1ccc(C2=NN(c3nc(-c4ccc(OC)cc4)c(C#N)c(=O)n3C)C(=O)CC2)cc1 ?
*A* 91.8

*Q* // returns reported growth for input Cc1cccc(C)c1NCc1nc(-c2ccccc2)n[nH]1
*A* 101

*Q* Would you mind telling me what growth value was observed for COc1cccc(-c2nn(-c3ccccc3)cc2-c2ccnc(NCCCNS(=O)(=O)c3ccc(C(F)(F)F)cc3)c2)c1 ?
*A* 20

*Q* Name the recorded growth for COc1cc2c(cc1-c1c(C)noc1C)ncc1nc(C3CCC(F)(F)CC3)n([C@@H](C)COC(F)F)c12 .
*A* 52.3

*Q* Find the recorded growth belonging to COc1ccc2[nH]cc(-c3nc(-c4c[nH]c5ncccc45)cs3)c2c1 and report it.
*A* 70.4
